test system: herpes simplex virus type 1 (HSV-1); test: Plaque assay for antiviral activity, Vero cells; format: cell-based; conditions: nontoxic dose; viral titers 1 × 10^5, 1 × 10^6, 1 × 10^7
measurement-type: mean % of reduction, herpes simplex virus type-1

[
  {
    "compound": "O=c1c(-c2nc3ccccc3s2)cc2c(n1NS(=O)(=O)c1ccc(Cl)cc1)CCCC2 [compound 7b]",
    "assay-result": "- ^a"
  },
  {
    "compound": "CCOC(=O)c1cc(-c2nc3ccccc3s2)c(=O)n(NS(=O)(=O)c2ccc(C)cc2)c1N [compound 13f]",
    "assay-result": "23.3%"
  },
  {
    "compound": "N#Cc1cc(-c2nc3ccccc3s2)c(=O)n(NS(=O)(=O)c2ccc(Cl)cc2)c1N [compound 13b]",
    "assay-result": "26.7%"
  },
  {
    "compound": "Cc1ccc(S(=O)(=O)Nn2c(N)c(C#N)cc(-c3nc4ccccc4s3)c2=O)cc1 [compound 13c]",
    "assay-result": "10.0%"
  },
  {
    "compound": "O=c1c(-c2nc3ccccc3s2)cc2c(n1NS(=O)(=O)c1ccccc1)CCCC2 [compound 7a]",
    "assay-result": "40.0%"
  }
]

* * *

test: Cytotoxicity test; assay type: cell-based; details: rhesus monkey, uninfected FRHK-4 cells

[
  {
    "molecule": "N#Cc1cc(-c2nc3ccccc3s2)c(=O)n(NS(=O)(=O)c2ccccc2)c1N [compound 13a]",
    "CC50": "260 µg/mL"
  }
]

* * *

system: Vero; assay: Cytotoxicity test; type: cell-based; settings: Vero cell line
measurement-type: nontoxic dose (µg/mL)

[
  {
    "compound": "O=c1c(-c2nc3ccccc3s2)cc2c(n1NS(=O)(=O)c1ccc(Cl)cc1)CCCC2 [compound 7b]",
    "measurement-type": "nontoxic dose",
    "unit-annotation": "µg/mL",
    "assay-result": 130
  },
  {
    "compound": "Cc1ccc(S(=O)(=O)Nn2c(N)c(C#N)cc(-c3nc4ccccc4s3)c2=O)cc1 [compound 13c]",
    "measurement-type": "nontoxic dose",
    "unit-annotation": "µg/mL",
    "assay-result": 110
  },
  {
    "compound": "N#Cc1cc(-c2nc3ccccc3s2)c(=O)n(NS(=O)(=O)c2ccc(Cl)cc2)c1N [compound 13b]",
    "measurement-type": "nontoxic dose",
    "unit-annotation": "µg/mL",
    "assay-result": 100
  },
  {
    "compound": "CCOC(=O)c1cc(-c2nc3ccccc3s2)c(=O)n(NS(=O)(=O)c2ccc(C)cc2)c1N [compound 13f]",
    "measurement-type": "nontoxic dose",
    "unit-annotation": "µg/mL",
    "assay-result": 140
  },
  {
    "compound": "N#Cc1cc(-c2nc3ccccc3s2)c(=O)n(NS(=O)(=O)c2ccccc2)c1N [compound 13a]",
    "measurement-type": "nontoxic dose",
    "unit-annotation": "µg/mL",
    "assay-result": 110
  },
  {
    "compound": "O=c1c(-c2nc3ccccc3s2)cc2c(n1NS(=O)(=O)c1ccccc1)CCCC2 [compound 7a]",
    "measurement-type": "nontoxic dose",
    "unit-annotation": "µg/mL",
    "assay-result": 110
  }
]
